Read-out: Transforming growth factor beta 1 (TGFb1), TGFB1 (gene 7040)
MEASUREMENT PROTOCOL: BSK_BE3C_TGFb1: BioMAP Diversity Plus: BE3C Assay for Transforming growth factor beta 1 (TGFb1) Biomarker Activity (AID 2283036)
ASSAY SETUP: primary human bronchial epithelial cells; actives raise or lower the signal
Calls of active or inactive are those of the source. The calls were made as follows: active = hit-call score of the fitted dose curve at least 0.9, where 1 is the maximum; inactive = score below 0.9.
Output constraint: value belongs to class 1 (active), class 0 (inactive)

| MOLECULE | LABEL |
| --- | --- |
| O=C=NCc1cccc(CN=C=O)c1 | class 0 |
| CCN(CC)c1ccc(C=O)c(O)c1 | class 0 |

Short answer needed: outcome of this test for `CCN(CC)c1ccc2c(c1)Oc1cc(N(CC)CC)ccc1C21OC(=O)c2ccccc21` ? class 0

Short answer needed: outcome of this test for CC(C)CCCC(C)CCO (configuration not stated) ? class 1

Short answer needed: outcome of this test for `CC(C)(C)c1cc(CCC(=O)NCCCCCCNC(=O)CCc2cc(C(C)(C)C)c(O)c(C(C)(C)C)c2)cc(C(C)(C)C)c1O` ? class 0

Short answer needed: outcome of this test for `Cc1cc(O)c(C(C)(C)C)cc1C(C)(C)C` ? class 1

Short answer needed: outcome of this test for `O=C1C=CC(=O)N1c1ccc(Cc2ccc(N3C(=O)C=CC3=O)cc2)cc1` ? class 1

Short answer needed: outcome of this test for `O=C(c1ccccc1)c1ccc(O)cc1O` ? class 0

Short answer needed: outcome of this test for `Cc1ccc(O)c(-n2nc3ccccc3n2)c1` ? class 0
